Values were extracted from paper PMC8225628.

systemName: SARS-CoV-2 M^pro (Severe acute respiratory syndrome coronavirus 2)
experimentSummary: biochemical
conditionSet: read-out: M^pro IC50
endpointLabel: IC50

Exam item: Item under review: Cc1cc(O)c2c(=O)c3c(O)cc(O)c4c5c(O)cc(O)c6c(=O)c7c(O)cc(C)c8c1c2c(c34)c(c78)c65 . Reported IC50?
Marked response: 4 µM

Exam item: Item under review: CC(=O)[O][Hg][c]1cc(C(C)(C)CC(C)(C)C)ccc1O . Reported IC50?
Marked response: > 5 µM

Exam item: Item under review: O=c1cc(-c2ccc(O)c(-c3c(O)cc(O)c4c(=O)cc(-c5ccc(O)cc5)oc34)c2)oc2cc(O)cc(O)c12 . Reported IC50?
Marked response: > 5 µM

Exam item: Item under review: O=C(N/N=C/c1ccc([N+](=O)[O-])o1)c1cc([N+](=O)[O-])cc([N+](=O)[O-])c1O . Reported IC50?
Marked response: > 5 µM

Exam item: Item under review: Nc1nc(N)nc(Nc2ccc([As]3SC(C(=O)O)C(C(=O)O)S3)cc2)n1 (centres unmarked) . Reported IC50?
Marked response: 1 µM
